assay: Cytotoxicity on macrophages infected with L. donovani; type: cell-based, mouse; details: mouse; infected macrophages; read-out: Cytotox. mac.inf. IC50
observedProperty: IC50 at 96 h

[[record]]
molecule = "Cc1c(C)c2c(c(C)c1O)CCC(C)(COc1ccc(CC3SC(=O)NC3=O)cc1)O2 (centres unmarked)"
observedproperty = "IC50 at 96 h"
observedmeasurement = "> 67.9 µM"

[[record]]
molecule = "CO[C@H]1/C=C/O[C@@]2(C)Oc3c(C)c(O)c4c(c3C2=O)C2=NC3(CCN(CC(C)C)CC3)NC2=C(NC(=O)/C(C)=C\\C=C\\[C@H](C)[C@H](O)[C@@H](C)[C@@H](O)[C@@H](C)[C@H](OC(C)=O)[C@@H]1C)C4=O"
observedproperty = "IC50 at 96 h"
observedmeasurement = "> 35.4 µM"

[[record]]
molecule = "COc1ccc(Cl)cc1C(=O)NCCc1ccc(S(=O)(=O)NC(=O)NC2CCCCC2)cc1 [Glybenclamide]"
observedproperty = "IC50 at 96 h"
observedmeasurement = "> 60.7 µM"

[[record]]
molecule = "COc1cc(NC(C)CCCN)c2ncccc2c1 (centres unmarked)"
observedproperty = "IC50 at 96 h"
observedmeasurement = "> 38.6 µM"

[[record]]
molecule = "COC1=CC(=O)C[C@@H](C)[C@]12Oc1c(Cl)c(OC)cc(OC)c1C2=O"
observedproperty = "IC50 at 96 h"
observedmeasurement = "> 85 µM"

[[record]]
molecule = "CCn1cc(C(=O)O)c(=O)c2cc(F)c(N3CCNCC3)nc21"
observedproperty = "IC50 at 96 h"
observedmeasurement = "> 93.7 µM"

[[record]]
molecule = "CC(=O)[C@H]1CC[C@H]2[C@@H]3CC[C@H]4C[C@](C)(O)CC[C@]4(C)[C@H]3CC[C@]12C"
observedproperty = "IC50 at 96 h"
observedmeasurement = "> 90.2 µM"

[[record]]
molecule = "C#C[C@]1(O)CC[C@H]2[C@@H]3CCC4=Cc5oncc5C[C@]4(C)[C@H]3CC[C@@]21C"
observedproperty = "IC50 at 96 h"
observedmeasurement = "> 29.6 µM"

[[record]]
molecule = "Cc1cccc(N(C)C(=S)Oc2ccc3ccccc3c2)c1 [Tolnaftate]"
observedproperty = "IC50 at 96 h"
observedmeasurement = "> 97.6 µM"

[[record]]
molecule = "CO[C@H]1/C=C/O[C@@]2(C)Oc3c(C)c(O)c4c(O)c(c5c(nc6cc(C)ccn65)c4c3C2=O)NC(=O)/C(C)=C\\C=C\\[C@H](C)[C@H](O)[C@@H](C)[C@@H](O)[C@@H](C)[C@H](OC(C)=O)[C@@H]1C"
observedproperty = "IC50 at 96 h"
observedmeasurement = "> 38.2 µM"

[[record]]
molecule = "CCN(CC)CCCC(C)Nc1ccnc2cc(Cl)ccc12 (centres unmarked) [Chloroquine (Diphosphate), Chloroquine]"
observedproperty = "IC50 at 96 h"
observedmeasurement = "> 58.9 µM"

[[record]]
molecule = "CO[C@H]1/C=C/O[C@@]2(C)Oc3c(C)c(O)c4c(O)c(c(/C=N/N5CCN(C)CC5)c(O)c4c3C2=O)NC(=O)/C(C)=C\\C=C\\[C@H](C)[C@H](O)[C@@H](C)[C@@H](O)[C@@H](C)[C@H](OC(C)=O)[C@@H]1C"
observedproperty = "IC50 at 96 h"
observedmeasurement = "> 36.5 µM"

[[record]]
molecule = "CN(C)c1ccc(O)c2c1C[C@H]1C[C@H]3[C@H](N(C)C)C(O)=C(C(N)=O)C(=O)[C@@]3(O)C(O)=C1C2=O"
observedproperty = "IC50 at 96 h"
observedmeasurement = "> 21.9 µM"

[[record]]
molecule = "O=C(O)c1cn(C2CC2)c2cc(N3CCNCC3)c(F)cc2c1=O"
observedproperty = "IC50 at 96 h"
observedmeasurement = "> 90.5 µM"


###

test system: L6 cells; test: in vitro
observedProperty: IC50

[[record]]
compound = "NNC(=O)c1ccncc1 [Izoniazide]"
observedmeasurement = "> 656 µM"


###

assay: Cytotoxicity on L6 cells; details: rat, L6 cells, IC50 Cytotox. L6, L6 cells; means of two independent assays
Overview of reported IC50 across a group of compounds:
observedProperty: IC50 (µM)

[[record]]
compound = "COc1cc(C)c2c(Oc3cccc(C(F)(F)F)c3)c(OC)cc(NC(C)CCCN)c2n1 (centres unmarked)"
observedmeasurement = 5.52

[[record]]
compound = "CC(N)C12CC3CC(CC(C3)C1)C2 (centres unmarked)"
observedmeasurement = 311

[[record]]
compound = "CN(C)CCCN1c2ccccc2Sc2ccccc21"
observedmeasurement = 30.1

[[record]]
compound = "CCN(CC)CCCCCCNc1cc(OC)cc2c(C)ccnc12"
observedmeasurement = 32.3

[[record]]
compound = "CN1CCC(=C2c3ccccc3CCc3sccc32)CC1"
observedmeasurement = 45


###

system: P. falciparum strain K1; assay: in vitro; details: rat, Selectivity index: IC50 Cytotoxicity L6/ IC50 P. falciparum
Structures can show the parent of a compound that is named as a salt.
Listed here are compounds together with their documented selectivity ratio.
observedProperty: selectivity ratio

[[record]]
compound = "OC(c1cc(C(F)(F)F)nc2c(C(F)(F)F)cccc12)C1CCCCN1 (stereo not shown) [Mefloquine (Hydrochloride), Mefloquine]"
subjectoftest = "P. falciparum strain K1"
observedproperty = "selectivity ratio"
observedmeasurement = 1350

[[record]]
compound = "C[C@H]1[C@H](OC(=O)CCC(=O)O)O[C@@H]2O[C@@]3(C)CC[C@H]4[C@H](C)CC[C@@H]1[C@@]24OO3 [Artesunate]"
subjectoftest = "P. falciparum strain K1"
observedproperty = "selectivity ratio"
observedmeasurement = 260

[[record]]
compound = "CO[C@H]1/C=C/O[C@@]2(C)Oc3c(C)c(O)c4c(O)c(c5c(nc6cc(C)ccn65)c4c3C2=O)NC(=O)/C(C)=C\\C=C\\[C@H](C)[C@H](O)[C@@H](C)[C@@H](O)[C@@H](C)[C@H](OC(C)=O)[C@@H]1C [Rifaximin]"
subjectoftest = "P. falciparum strain K1"
observedproperty = "selectivity ratio"
observedmeasurement = 96

[[record]]
compound = "Clc1ccc(C(OCCN2CCCCC2)c2ccccc2)cc1 (stereo not shown) [Cloperastine]"
subjectoftest = "P. falciparum strain K1"
observedproperty = "selectivity ratio"
observedmeasurement = 50

[[record]]
compound = "CCN(CC)CCCCCCNc1cc(OC)cc2c(C)ccnc12 [Sitamaquine]"
subjectoftest = "P. falciparum strain K1"
observedproperty = "selectivity ratio"
observedmeasurement = 404

[[record]]
compound = "Clc1ccc(C(Cn2ccnc2)OCc2ccsc2Cl)c(Cl)c1 (stereo not shown) [Tioconazole]"
subjectoftest = "P. falciparum strain K1"
observedproperty = "selectivity ratio"
observedmeasurement = 31

[[record]]
compound = "CC(N)C12CC3CC(CC(C3)C1)C2 (stereo not shown) [Rimantadine]"
subjectoftest = "P. falciparum strain K1"
observedproperty = "selectivity ratio"
observedmeasurement = 321


###

tested on: intracellular amastigotes of L. donovani strain MHOM-ET-67/L82; experiment: Activity against Leishmania donovani intracellular amastigotes in mouse peritoneal macrophages; details: Leishmania donovani, Peritoneal macrophage, in Mus musculus, 96 h, read-out: IC50 L. don. intracell
pIC50: −log10 of the molar value.
observedProperty: pIC50

[[record]]
compound = "O=C(O)c1nn(Cc2ccc(Cl)cc2Cl)c2ccccc12 [Lonidamine]"
observedproperty = "pIC50"
observedmeasurement = "< 4.03"

[[record]]
compound = "CN1CCC(=C2c3ccccc3CC(=O)c3sccc32)CC1 [Ketotifen]"
observedproperty = "pIC50"
observedmeasurement = "< 4.01"

[[record]]
compound = "OCCN(CCO)c1nc(N2CCCCC2)c2nc(N(CCO)CCO)nc(N3CCCCC3)c2n1 [Dipyridamole]"
observedproperty = "pIC50"
observedmeasurement = "< 4.23"

[[record]]
compound = "Cc1cccc(N(C)C(=S)Oc2ccc3ccccc3c2)c1 [Tolnaftate]"
observedproperty = "pIC50"
observedmeasurement = 4.30

[[record]]
compound = "CC(C)c1nc(CN(C)C(=O)N[C@H](C(=O)N[C@@H](Cc2ccccc2)C[C@H](O)[C@H](Cc2ccccc2)NC(=O)OCc2cncs2)C(C)C)cs1 [Ritonavir]"
observedproperty = "pIC50"
observedmeasurement = "< 4.38"

[[record]]
compound = "Nc1nc(O)c2ncn(COC(CO)CO)c2n1 [Ganciclovir]"
observedproperty = "pIC50"
observedmeasurement = "< 3.93"

[[record]]
compound = "COc1cc(C)c2c(Oc3cccc(C(F)(F)F)c3)c(OC)cc(NC(C)CCCN)c2n1 (centres unmarked) [Tafenoquine]"
observedproperty = "pIC50"
observedmeasurement = 5.67

[[record]]
compound = "Cc1ncc([N+](=O)[O-])n1CC(C)O (centres unmarked) [Secnidazole]"
observedproperty = "pIC50"
observedmeasurement = "< 3.79"

[[record]]
compound = "C[C@@H]1[C@H](O)[C@@H](C)/C=C/C=C/C=C/C=C/C=C/C=C/C=C/[C@H](O[C@@H]2O[C@H](C)[C@@H](O)[C@H](N)[C@@H]2O)C[C@@H]2O[C@](O)(C[C@@H](O)C[C@@H](O)[C@H](O)CC[C@@H](O)C[C@@H](O)CC(=O)O[C@H]1C)C[C@H](O)[C@H]2C(=O)O [Amphotericin B]"
observedproperty = "pIC50"
observedmeasurement = 6.51

[[record]]
compound = "Cc1c(O)cccc1C(=O)N[C@@H](CSc1ccccc1)[C@H](O)CN1C[C@H]2CCCC[C@H]2C[C@H]1C(=O)NC(C)(C)C [Nelfinavir]"
observedproperty = "pIC50"
observedmeasurement = 4.69

[[record]]
compound = "Cc1cc(C2CCCCC2)n(O)c(=O)c1 [Ciclopirox olamine]"
observedproperty = "pIC50"
observedmeasurement = 5.04

[[record]]
compound = "CCS(=O)(=O)CCn1c([N+](=O)[O-])cnc1C [Tinidazole]"
observedproperty = "pIC50"
observedmeasurement = "< 4.09"

[[record]]
compound = "CC(N)C12CC3CC(CC(C3)C1)C2 (centres unmarked) [Rimantadine]"
observedproperty = "pIC50"
observedmeasurement = "< 3.78"

[[record]]
compound = "CN(C)CCC=C1c2ccccc2CCc2ccccc21 [Amitriptyline]"
observedproperty = "pIC50"
observedmeasurement = "< 4.97"

[[record]]
compound = "CN1CCN(CCCN2c3ccccc3Sc3ccc(C(F)(F)F)cc32)CC1 [Trifluoperazine]"
observedproperty = "pIC50"
observedmeasurement = "< 5.13"

[[record]]
compound = "Nc1ccc(S(=O)(=O)c2ccc(N)cc2)cc1 [Dapsone]"
observedproperty = "pIC50"
observedmeasurement = "< 3.92"

[[record]]
compound = "Cc1oncc1C(=O)Nc1ccc(C(F)(F)F)cc1 [Leflunomide]"
observedproperty = "pIC50"
observedmeasurement = "< 3.95"

